biological target: glycine site of the NMDA receptor complex (Rattus norvegicus, UniProt P35439); construct: thawed rat cerebral cortical membrane homogenate; assay: [3H]-glycine binding (Test 1); settings: [3H]-glycine 10 nM, rat cerebral cortical membrane, 0° C., 10 min, pH 7.1
MEASURED_ENDPOINT: IC50 (nM)

Consider the worked cases shown below.
CCCC(C(=O)O)n1c(=O)c(=O)[nH]c2ccccc21 (stereo not shown)
5000
CCCCC(C(=O)O)n1c(=O)c(=O)[nH]c2cc(Cl)c(Cl)cc21 (stereo not shown)
409

[1] CC(C(=O)O)n1c(=O)c(=O)[nH]c2ccccc21 (stereo not shown)
[2] O=C(O)Cn1c(=O)c(=O)[nH]c2cc(Br)c(Br)cc21
[3] O=C(O)Cn1c(=O)c(=O)[nH]c2cc(F)c(F)cc21
[4] O=C(O)Cn1c(=O)c(=O)[nH]c2cc(Cl)c(Cl)cc21
Task: List by increasing IC50. Answer by naming the labels in the order asked.
Result: 4, 3, 2, 1
(4: 350 nM, 3: 500 nM, 2: 849 nM, 1: 3000 nM)

[I] O=C(O)C(c1ccccc1)n1c(=O)c(=O)[nH]c2ccccc21 (stereo not shown)
[II] CCCCC(C(=O)O)n1c(=O)c(=O)[nH]c2ccccc21 (stereo not shown)
[III] Cc1cc2[nH]c(=O)c(=O)n(CC(=O)O)c2cc1C
[IV] O=C(O)Cn1c(=O)c(=O)[nH]c2cc(Cl)cc(Cl)c21
Task: List by increasing IC50. Answer by naming the labels in the order asked.
Result: III, IV, II, I
(III: 554 nM, IV: 852 nM, II: 2200 nM, I: 8000 nM)

[1] O=C(O)Cn1c(=O)c(=O)[nH]c2ccc([N+](=O)[O-])cc21
[2] O=C(O)Cn1c(=O)c(=O)[nH]c2cc([N+](=O)[O-])ccc21
Task: For the pair 1 and 2 , which member has the lower IC50 number? // caller expects the label of the chosen entry
Result: 2
(2: 2000 nM, 1: 7000 nM)

[a] O=C(O)Cn1c(=O)c(=O)[nH]c2cc(Cl)ccc21
[b] COc1ccc2c(c1)n(O)c(=O)c(=O)n2CC(=O)O
Task: For the pair a and b , which member has the lower IC50 number? // caller expects the label of the chosen entry
Result: a
(a: 520 nM, b: 8000 nM)
